Source listed as a melting point compilation (Tetko et al.; mined from patent text by program, amines drawn as free bases though some values may be those of a salt).

Each item that follows carries a reported melting point.

Completed entries (count: 4):
compound	result
CC(C)(C)OC(=O)N1C[C@H](n2ccc(NC(=O)c3ccccc3)nc2=O)C[C@@H]1C(=O)OC(c1ccccc1)c1ccccc1	133 to 135 °C
O=C1C(=O)N(C(c2ccccc2)c2ccccc2)c2cc(F)ccc21	167 to 169 °C
N#CC1c2ccccc2CSc2ccccc21 (centres undefined)	128 to 130 °C
N#CCN1C(=O)N(c2ccc(C#N)c(C(F)(F)F)c2)C(=O)C1(CF)CF	125 °C

Req: Please give the measured melting point for this compound: CCCC1=C(C(=O)OCC)C(c2c(OC)ccc3ccccc23)c2c[nH]nc2N1 (centres undefined)
Resp: 188 to 191 °C

Req: # repeat for NS(=O)(=O)c1ccc2c(c1)C=C(C(=O)O)C(C(F)(F)F)O2 (centres undefined)
Resp: 188 to 190 °C

Req: # repeat for "COCC(=O)Nc1c(C(=O)c2cccc(C)c2)[nH]c2cc(Cl)ccc12"
Resp: 155 to 157 °C

Req: # repeat for CN(C)S(=O)(=O)c1cc2c(c(Cl)c1Cl)OC(CO)C2 (centres undefined)
Resp: 133 to 134 °C

Req: # repeat for "O=C(Cc1c(-c2ccccc2)c2cc(O)c(Cl)cc2oc1=O)Nc1ccc(F)cc1C(F)(F)F"
Resp: 240 to 243 °C

Req: # repeat for "O=C(CO)NCCCCCCCCCCCCNC(=O)CO"
Resp: 94 to 97 °C

Req: # repeat for "COc1c(CC(=O)O)c2c(c3c1OC(C)(C)C3)C(c1ccccc1)=NC(C)(C)C2"
Resp: 225 to 245 °C

Req: # repeat for "Cc1nn2c(=O)c(CCN3CCC(n4ccc5cc(F)ccc54)CC3)c(C)nc2s1"
Resp: 194 °C

Req: # repeat for "CC(=O)NCc1ccc(C(C)(C)NC(=O)OCc2ccccc2)cc1"
Resp: 132 to 135 °C

Req: # repeat for "Nc1cc(OCc2ccccc2)c(OCc2ccccc2)cn1"
Resp: 111 to 113 °C

Req: # repeat for "C/C(=C\COC(=O)c1ccccc1)CCc1c(C)c(O)c(C)c(C)c1O"
Resp: 112 to 114 °C

Req: # repeat for O=C(O)c1cc(OCc2ccccc2)ccc1OC1CCOC1=O (centres undefined)
Resp: 120 to 122 °C

Req: # repeat for "CC(C)Sc1cc2c(cc1Cl)N=C(C(N)=O)NS2(=O)=O"
Resp: 279 to 280 °C

Req: # repeat for Clc1ccc2c(c1)C(n1ccnc1)c1ccccc1CO2 (centres undefined)
Resp: 180 to 182 °C

Req: # repeat for "O=C(Nc1nc(=O)n(S(=O)(=O)c2ccc(Cl)cc2)cc1F)c1ccc(Cl)cc1"
Resp: 169 to 172 °C
